# System: Syk kinase (Homo sapiens, UniProt P43405)
pIC50: −log10 of the molar value.
Please mark y if the recorded pIC50 is equal to or greater than 7, and n if it falls below.

Q: Does CN1CCc2cc(-c3cc4nccnc4c(OC[C@@H]4CN(S(N)(=O)=O)CCO4)n3)ccc21 [Compound 215] have a reported pIC50 of at least 7?
Result: y

Q: State whether the measured pIC50 reaches 7, counting equality as reaching it, for CN(C)c1ccc(-c2cc3nccnc3c(OC[C@@H]3CN(S(=O)(=O)CCN4CC[C@@H](O)C4)CCO3)n2)cc1 [Compound 102]
Result: y

Q: Decide: pIC50 of CN(C)c1ccc(-c2cc3nccnc3c(O[C@@H]3CCOC3)n2)cc1 [Compound 123] >= 7?
Result: y

Q: Exam item: decide whether the reported pIC50 for CN(C)c1ccc(-c2cc3nccnc3c(OC[C@@H]3CN(C(N)=O)CCO3)n2)cc1Cl [Compound 165] is at least 7.
Result: y

Q: Given the entry CN(C)CCOc1cccc(-c2cc3nccnc3c(OC[C@@H]3CN(S(C)(=O)=O)CCO3)n2)c1 [Compound 130] , answer whether its pIC50 meets or surpasses 7.
Result: n

Q: Determine whether this compound has pIC50 no lower than 7: CC(C)(O)C1CCN(c2ccc(-c3cc4nccnc4c(O[C@@H]4CCOC4)n3)cc2)CC1 [Compound 228]
Result: y

Q: Does CN1CCC(c2ccc(-c3cc4nccnc4c(OC[C@@H]4CN(S(C)(=O)=O)CCO4)n3)cc2)CC1 [Compound 8] have a reported pIC50 of at least 7?
Result: y

Q: Decide: pIC50 of CCN1CCN(c2ccc(-c3cc4nccnc4c(OC[C@@H]4CN(C(=O)C(F)F)CCO4)n3)cc2)CC1 [Compound 17] >= 7?
Result: y

Q: pIC50 >= 7 for Cn1ncc2cc(-c3cc4nccnc4c(OC[C@@H]4CN(S(C)(=O)=O)CCO4)n3)ccc21 [Compound 105] ?
Result: y

Q: Confirm if pIC50 reported for the compound O=C(C(F)F)N1CCO[C@H](COc2nc(-c3ccc(N4CCNCC4)cc3)cc3nccnc23)C1 [Compound 6] is 7 or above.
Result: y

Q: Item OC1CCC(Oc2nc(-c3ccc(N4CCOCC4)cc3)cc3nccnc23)CC1 (stereo not shown) [Compound 1] with pIC50 of 7 or above?
Result: n

Q: Could you verify whether the entry CC(=O)N1CCO[C@H](COc2nc(-c3ccc(N(C)C)cc3)cc3nccnc23)C1 [Compound 67] shows pIC50 of no less than 7?
Result: y

Q: I'd appreciate it if you could say whether CC(=O)N1CCO[C@H](COc2nc(-c3cnc(N(C)C)c(C)c3)cc3nccnc23)C1 [Compound 174] has pIC50 at least equal to 7.
Result: n

Q: Hi team, for CN(C)c1ccc(-c2cc3nccnc3c(OC[C@@H]3CN(C(=O)CC#N)CCO3)n2)cc1 [Compound 76] , is the recorded pIC50 at or above 7?
Result: y

Q: Answer whether pIC50 of CN(C)c1ccc(-c2cc3nccnc3c(OC[C@@H]3CN(C(=O)C4CC4)CCO3)n2)cc1 [Compound 69] is greater than or equal to 7.
Result: y

Q: Reported pIC50 at or above 7? c1cnc2c(O[C@@H]3CCNC3)nc(-c3ccc(N4CCOCC4)cc3)cc2n1 [Compound 243]
Result: n

Q: I'd appreciate it if you could say whether NS(=O)(=O)N1CCO[C@H](COc2nc(-c3ccc(C4CCOCC4)cc3)cc3nccnc23)C1 [Compound 260] has pIC50 at least equal to 7.
Result: y
